Source listed as paper PMC6877352.

TEST_PROTOCOL: Stability in fresh human serum (RP-HPLC, %RCP)
STATED_CONDITIONS: 37 °C, 120 min, n = 3
READOUT: Stability in serum (%)

{"COMPOUND": "CCC(=O)NC1CCCN(O)C(=O)C=C(C)CCOC(=O)C(NC(=O)CC)CCCN(O)C(=O)C=C(C)CCOC(=O)C(NC(=O)CC)CCCN(O)C(=O)C=C(C)CCOC1=O (stereo not shown) (68Ga complex, metal not drawn)", "READOUT": "Stability in serum (%)", "VALUE_MEASURED": "99.54 ± 0.25%"}
{"COMPOUND": "CC1=CC(=O)N(O)CCCC(NC(=O)CCC(=O)O)C(=O)OCCC(C)=CC(=O)N(O)CCCC(NC(=O)CCC(=O)O)C(=O)OCCC(C)=CC(=O)N(O)CCCC(NC(=O)CCC(=O)O)C(=O)OCC1 (stereo not shown) (68Ga complex, metal not drawn) [FSC(suc)3, trisuccinyl(FSC)]", "READOUT": "Stability in serum (%)", "VALUE_MEASURED": "99.36 ± 0.08%"}
{"COMPOUND": "CCCC(=O)NC1CCCN(O)C(=O)C=C(C)CCOC(=O)C(NC(C)=O)CCCN(O)C(=O)C=C(C)CCOC(=O)C(NC(C)=O)CCCN(O)C(=O)C=C(C)CCOC1=O (stereo not shown) (68Ga complex, metal not drawn)", "READOUT": "Stability in serum (%)", "VALUE_MEASURED": "99.60 ± 0.14%"}
{"COMPOUND": "CC(=O)NC1CCCN(O)C(=O)C=C(C)CCOC(=O)C(NC(C)=O)CCCN(O)C(=O)C=C(C)CCOC(=O)C(NC(C)=O)CCCN(O)C(=O)C=C(C)CCOC1=O (stereo not shown) (68Ga complex, metal not drawn)", "READOUT": "Stability in serum (%)", "VALUE_MEASURED": "99.41 ± 0.19%"}
